Origin of the recorded values: PubChem BioAssay AID720673

- test_target: Botulinum neurotoxin type A light chain (Clostridium botulinum A ATCC 3502)
- method_notes: BoNT/A light chain protease inhibitors, dose response, biochemical, powder set 03 (AID 720673)
- particulars: BoNT/A LC protease, multiplex microsphere substrate cleavage assay
Activity calls are given as the source filed them. The rule behind the calls is not given here.
Return exactly one item of T = active, F = inactive

Solved cases (2 shown):
CCNC(=O)Nc1ccc2nc(-c3ccccc3)c(-c3ccccc3)nc2c1    F
COc1ccc(-c2nc3nc(-c4ccc(F)cc4)cn3nc2-c2ccc(OC)cc2)cc1    T

In: Could you check what this test reported for CCNC(=S)Nc1ccc2nc(-c3ccccc3)c(-c3ccccc3)nc2c1 ?
Out: F

In: Query CC(C)(C)C(=O)Nc1ccc2nc(-c3ccccc3)c(-c3ccccc3)nc2c1 next
Out: F

In: Query CC(C)NC(=O)Nc1ccc2nc(-c3cccs3)c(-c3cccs3)nc2c1 next
Out: F

In: Query COc1ccc(-c2nc3nc(-c4ccc(OC)cc4OC)cn3nc2-c2ccc(OC)cc2)cc1 next
Out: F

In: Query COc1ccc(-c2cn3nc(-c4ccc(F)cc4)c(-c4ccc(F)cc4)nc3n2)cc1 next
Out: T

In: Query O=C(Nc1ccc2nc(-c3cccs3)c(-c3cccs3)nc2c1)OCc1ccccc1 next
Out: T

In: Query CC(C)OC(=O)Nc1ccc2nc(-c3cccs3)c(-c3cccs3)nc2c1 next
Out: F

In: Query CC(C)CS(=O)(=O)Nc1ccc2nc(-c3cccs3)c(-c3cccs3)nc2c1 next
Out: F
